Target: Upc2 (UniProt Q12151)
Sequence: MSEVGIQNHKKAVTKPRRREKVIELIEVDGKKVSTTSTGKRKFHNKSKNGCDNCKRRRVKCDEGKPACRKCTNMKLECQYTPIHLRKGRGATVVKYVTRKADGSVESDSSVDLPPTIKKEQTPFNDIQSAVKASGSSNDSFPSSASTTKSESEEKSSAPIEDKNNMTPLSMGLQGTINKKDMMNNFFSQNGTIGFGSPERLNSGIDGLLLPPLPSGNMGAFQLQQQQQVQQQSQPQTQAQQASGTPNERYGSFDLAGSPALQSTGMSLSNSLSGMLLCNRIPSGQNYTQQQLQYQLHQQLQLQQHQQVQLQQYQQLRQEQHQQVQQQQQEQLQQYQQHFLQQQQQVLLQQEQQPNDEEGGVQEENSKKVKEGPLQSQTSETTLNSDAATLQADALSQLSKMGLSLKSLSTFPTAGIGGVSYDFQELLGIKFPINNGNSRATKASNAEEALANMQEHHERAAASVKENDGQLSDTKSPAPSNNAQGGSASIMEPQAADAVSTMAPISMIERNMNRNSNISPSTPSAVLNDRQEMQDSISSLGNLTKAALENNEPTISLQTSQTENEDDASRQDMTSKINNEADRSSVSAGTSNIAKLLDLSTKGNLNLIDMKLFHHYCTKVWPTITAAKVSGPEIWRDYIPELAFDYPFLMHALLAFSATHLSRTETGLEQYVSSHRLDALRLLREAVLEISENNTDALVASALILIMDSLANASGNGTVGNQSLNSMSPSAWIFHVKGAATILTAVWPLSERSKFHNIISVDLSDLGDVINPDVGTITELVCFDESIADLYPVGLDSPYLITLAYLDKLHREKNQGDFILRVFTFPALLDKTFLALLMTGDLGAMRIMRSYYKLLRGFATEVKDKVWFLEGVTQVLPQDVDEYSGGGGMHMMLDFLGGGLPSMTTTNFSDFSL
Experiment: PBM E-score (8-mer binding enrichment) (E-score (-0.5 to 0.5)); higher = stronger / more preferred TF binding
Conditions: protein concentration: 200 nM; construct: GST-full length
Over roughly 33,000 sequences, “E-score (-0.5 to 0.5)” has its median near -0.043; the highest 2% begin near 0.37. This is one part of a sample in which the highest values are shown more often than they occur.
Parameter: PBM E-score
I only need the number, thanks.

Return PBM E-score measured with Upc2 (UniProt Q12151) given this sequence: "CAGGACGG"
-0.164

Please answer likewise for "GAGCTTGC"
-0.231

"ACATAGGC" , same question.
-0.126

Do the same for "CTACGCTA" please
-0.04

Next sequence up: "ATTTCTAA"
-0.105

###

Target: Upc2 (UniProt Q12151)
Sequence: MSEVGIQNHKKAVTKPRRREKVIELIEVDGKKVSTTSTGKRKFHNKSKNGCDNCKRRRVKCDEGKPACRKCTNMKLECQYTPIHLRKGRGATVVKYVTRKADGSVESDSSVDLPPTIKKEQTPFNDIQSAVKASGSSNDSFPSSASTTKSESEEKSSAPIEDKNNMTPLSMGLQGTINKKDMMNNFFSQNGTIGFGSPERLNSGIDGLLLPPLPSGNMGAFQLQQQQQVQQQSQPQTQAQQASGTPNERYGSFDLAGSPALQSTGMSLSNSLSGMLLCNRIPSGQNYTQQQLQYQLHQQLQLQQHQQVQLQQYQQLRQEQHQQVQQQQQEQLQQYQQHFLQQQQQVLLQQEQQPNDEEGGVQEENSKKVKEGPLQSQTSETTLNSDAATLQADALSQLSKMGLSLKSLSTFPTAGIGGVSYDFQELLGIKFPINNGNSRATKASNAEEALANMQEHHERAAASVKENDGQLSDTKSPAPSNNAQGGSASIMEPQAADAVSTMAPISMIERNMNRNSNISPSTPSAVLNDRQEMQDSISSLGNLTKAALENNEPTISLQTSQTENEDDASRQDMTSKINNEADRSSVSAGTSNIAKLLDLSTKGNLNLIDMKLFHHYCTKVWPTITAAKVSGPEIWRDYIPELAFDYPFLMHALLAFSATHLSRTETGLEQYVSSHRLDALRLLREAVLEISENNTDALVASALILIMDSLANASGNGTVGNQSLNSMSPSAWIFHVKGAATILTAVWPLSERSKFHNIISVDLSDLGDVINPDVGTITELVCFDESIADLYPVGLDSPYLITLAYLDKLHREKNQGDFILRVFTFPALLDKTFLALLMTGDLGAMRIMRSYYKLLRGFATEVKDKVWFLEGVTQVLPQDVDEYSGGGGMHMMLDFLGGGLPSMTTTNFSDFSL
Assay: PBM E-score (8-mer binding enrichment) (E-score (-0.5 to 0.5)); higher = stronger / more preferred TF binding
Settings: protein concentration: 200 nM; construct: GST-full length
Over roughly 33,000 sequences, “E-score (-0.5 to 0.5)” has its median near -0.043; the highest 2% begin near 0.37. What follows is part of a selection rich in the highest values, with near analogues and random picks from the rest.
Parameter: PBM E-score
Please respond with just the number, no unit label.

Illustrative cases are given below, each with its answer.
{"Seq Text": "CAGGGTAA", "Reported": -0.14}
{"Seq Text": "AGCAGACC", "Reported": -0.0454}
{"Seq Text": "CATACGAG", "Reported": 0.486}

Look at this sequence and give its reported PBM E-score. "CACGATTC"
0.258

Similarly, "AACTCCAC" ?
0.00868

Param item: "AACGATTG"
0.391

Input "CACACACC"
0.0034

Record: "CCTGCGCG"
-0.0152

Another sequence: "TGCAACAA"
-0.117

For "CTTGATCA" then?
-0.14

Moving on to the next sequence: "TGTTAGAA"
-0.177

And "AATTATGC" ?
0.0912

###

Target: Upc2 (UniProt Q12151)
Sequence: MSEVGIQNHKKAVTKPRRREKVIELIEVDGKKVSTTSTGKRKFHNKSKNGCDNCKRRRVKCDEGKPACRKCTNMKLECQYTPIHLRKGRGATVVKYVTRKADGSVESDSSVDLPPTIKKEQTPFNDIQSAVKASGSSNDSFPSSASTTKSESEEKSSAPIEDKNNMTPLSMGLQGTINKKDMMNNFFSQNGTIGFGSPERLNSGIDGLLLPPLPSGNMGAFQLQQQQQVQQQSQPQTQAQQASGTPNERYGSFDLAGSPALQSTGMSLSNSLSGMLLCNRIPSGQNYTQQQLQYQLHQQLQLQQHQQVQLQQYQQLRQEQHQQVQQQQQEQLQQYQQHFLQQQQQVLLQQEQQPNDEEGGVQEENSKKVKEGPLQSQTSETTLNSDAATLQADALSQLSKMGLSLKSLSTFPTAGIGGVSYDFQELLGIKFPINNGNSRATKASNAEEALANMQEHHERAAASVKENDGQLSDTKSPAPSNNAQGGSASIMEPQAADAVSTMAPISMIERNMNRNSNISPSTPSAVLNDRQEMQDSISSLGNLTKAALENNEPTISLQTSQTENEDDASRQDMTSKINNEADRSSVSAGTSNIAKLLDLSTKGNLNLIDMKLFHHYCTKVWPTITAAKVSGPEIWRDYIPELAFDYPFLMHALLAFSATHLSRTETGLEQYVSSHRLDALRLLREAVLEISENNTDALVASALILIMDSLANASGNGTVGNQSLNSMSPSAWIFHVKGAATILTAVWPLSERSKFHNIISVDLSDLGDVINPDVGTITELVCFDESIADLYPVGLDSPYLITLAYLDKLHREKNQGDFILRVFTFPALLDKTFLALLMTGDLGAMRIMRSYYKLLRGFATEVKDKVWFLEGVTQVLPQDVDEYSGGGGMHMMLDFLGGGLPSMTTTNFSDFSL
Assay: PBM E-score (8-mer binding enrichment) (E-score (-0.5 to 0.5)); higher = stronger / more preferred TF binding
Settings: protein concentration: 200 nM; construct: GST-full length
Whole data set: some 33,000 sequences, median “E-score (-0.5 to 0.5)” near -0.043, cut for the highest 2% near 0.37. This is one part of a sample in which the highest values are shown more often than they occur.
Classification field. Basis: PBM E-score. Definitions: lower range: < 0.06; middle range: ≥ 0.06 and < 0.3; upper range: ≥ 0.3

{"Seq Text": "ATCGAGAG", "Class Assignment": "lower range"}
{"Seq Text": "ACGAGCTG", "Class Assignment": "upper range"}
{"Seq Text": "CTCCTTAC", "Class Assignment": "middle range"}
{"Seq Text": "TCCGTACA", "Class Assignment": "upper range"}
{"Seq Text": "CTCTATAC", "Class Assignment": "upper range"}

State the band of "CGATCGTA"
upper range

Input "ATTCTAAA"
middle range

Try "AACAATCA" next.
lower range

Now give it for "ATATAATA" too.
lower range

And the next one, "AAGACTTG" ?
lower range

Also need "GGGAACAA" , thanks.
middle range

Could you do the same for "TCAGTCCA" , please?
lower range

Numbers sourced from the supplement of paper PMC3334620.
